Source: patent US8921376B2

Hi there, I'd appreciate the recorded Ki for every entry that follows.
# measurement target: JAK3 (Homo sapiens, UniProt P52333)
# Sequence (P52333 whole entry): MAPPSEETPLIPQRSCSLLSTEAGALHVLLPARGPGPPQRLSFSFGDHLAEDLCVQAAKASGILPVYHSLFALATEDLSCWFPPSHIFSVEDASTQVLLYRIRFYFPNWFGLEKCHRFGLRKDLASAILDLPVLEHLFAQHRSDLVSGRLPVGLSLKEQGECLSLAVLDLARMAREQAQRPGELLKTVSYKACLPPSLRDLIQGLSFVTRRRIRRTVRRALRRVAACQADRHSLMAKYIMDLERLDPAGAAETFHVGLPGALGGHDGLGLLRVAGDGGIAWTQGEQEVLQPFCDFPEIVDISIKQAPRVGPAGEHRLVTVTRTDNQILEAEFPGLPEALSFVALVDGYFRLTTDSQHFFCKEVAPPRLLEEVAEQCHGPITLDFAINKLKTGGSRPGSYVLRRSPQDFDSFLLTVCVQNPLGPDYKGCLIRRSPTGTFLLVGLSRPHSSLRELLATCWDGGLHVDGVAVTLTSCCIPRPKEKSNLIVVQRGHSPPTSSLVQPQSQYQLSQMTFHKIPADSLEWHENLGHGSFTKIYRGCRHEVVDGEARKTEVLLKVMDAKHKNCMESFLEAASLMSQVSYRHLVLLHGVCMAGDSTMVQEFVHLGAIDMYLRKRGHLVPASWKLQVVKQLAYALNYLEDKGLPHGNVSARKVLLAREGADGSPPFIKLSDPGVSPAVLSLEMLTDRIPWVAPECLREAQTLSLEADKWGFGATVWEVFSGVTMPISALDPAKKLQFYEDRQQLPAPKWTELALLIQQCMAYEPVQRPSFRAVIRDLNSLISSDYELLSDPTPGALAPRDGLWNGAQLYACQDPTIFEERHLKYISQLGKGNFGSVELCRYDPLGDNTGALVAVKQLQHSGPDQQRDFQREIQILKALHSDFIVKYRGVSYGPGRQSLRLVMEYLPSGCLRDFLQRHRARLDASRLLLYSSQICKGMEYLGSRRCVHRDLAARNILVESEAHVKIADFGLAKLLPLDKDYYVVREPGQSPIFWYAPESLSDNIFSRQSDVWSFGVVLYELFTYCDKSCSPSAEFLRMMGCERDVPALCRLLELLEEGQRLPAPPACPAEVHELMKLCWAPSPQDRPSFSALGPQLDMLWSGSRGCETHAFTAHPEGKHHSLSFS
# protocol: JAK3 inhibition assay (33P incorporation into poly(Glu)4Tyr)
# Type: biochemical
# measurement setup: Table 6; enzyme inhibition data (Ki)

Input line: Value lookup for Ki; key = CCCCN(CCC#N)C(=O)c1cc(-c2c(Cl)cnc3[nH]ccc23)c[nH]1 [compound 336]
Output line: < 500 nM

Input line: Look up Ki: C=CCN(CC=C)C(=O)c1cc(-c2c(Cl)cnc3[nH]ccc23)c[nH]1 [compound 330]
Output line: < 500 nM

Input line: Which Ki value belongs to CC(C)CN(C)C(=O)c1cc(-c2ccnc3[nH]ccc23)c[nH]1 [compound 310] ?
Output line: < 500 nM

Input line: What value of Ki has been reported for the following compound? NC(=O)C1CCCN1C(=O)c1cc(-c2c(Cl)cnc3[nH]ccc23)c[nH]1 (stereo not drawn) [compound 352]
Output line: < 500 nM

Input line: Tell me the measured Ki of CCNC(=O)c1cc(-c2c(Cl)cnc3[nH]ccc23)c[nH]1 [compound 278] , please.
Output line: < 500 nM

Input line: Given the compound CC(C)[C@H](C(=O)NCC(F)(F)F)n1ccc2cnc(-c3ccnc4[nH]ccc34)nc21 [compound 425] , what is its reported Ki?
Output line: < 500 nM

Input line: Look up Ki: CCCCN(CCC#N)C(=O)c1cc(-c2c(F)cnc3[nH]ccc23)c[nH]1 [compound 397]
Output line: < 500 nM

Input line: What does the record list as Ki for C[C@@H]1CCC[C@H](C)N1C(=O)c1csc(-c2ccnc3[nH]ccc23)n1 [compound 421] ?
Output line: < 500 nM

Input line: Dear colleague, I am looking for the recorded Ki of the following compound: COc1ccc(-c2ccnc3[nH]ccc23)c(OC)c1 [compound 220]
Output line: 500 to 5000 nM

Input line: Which Ki value belongs to Clc1cnc2[nH]ccc2c1N[C@@H]1C[C@H]2CC[C@@H]1C2 [compound 150] ?
Output line: < 500 nM

Input line: Give the measured Ki of CC1CC(Nc2c(Cl)cnc3[nH]ccc23)CC(C)(C)C1 (stereo not drawn) [compound 162] .
Output line: < 500 nM

Input line: Fill blank: measured Ki of the compound CNc1ccccc1-c1ccnc2[nH]ccc12 [compound 381] is ____.
Output line: 500 to 5000 nM

Input line: I would be grateful if you could share the reported Ki for CN(C)C1CCN(C(=O)c2cc(-c3ccnc4[nH]ccc34)c[nH]2)C1 (stereo not drawn) [compound 371] .
Output line: 500 to 5000 nM

Input line: I'd like to know its Ki. The compound in question is O=C(c1cc(-c2c(Cl)cnc3[nH]ccc23)c[nH]1)N1CCC(O)C1 (stereo not drawn) [compound 350]
Output line: < 500 nM

Input line: Sample c1ccc(COc2ccccc2-c2ccnc3[nH]ccc23)cc1 [compound 225] — what was its Ki?
Output line: > 5000 nM

Input line: # get_value(readout='Ki', item= Clc1ccc(Cl)c(-c2ccnc3[nH]ccc23)c1 [compound 211] )
Output line: 500 to 5000 nM

Input line: I'd like to know its Ki. The compound in question is Fc1ccccc1-c1ccnc2[nH]ccc12 [compound 236]
Output line: < 500 nM

Input line: What does the record list as Ki for N#CCCN(Cc1ccccc1)C(=O)c1cc(-c2ccnc3[nH]ccc23)c[nH]1 [compound 312] ?
Output line: < 500 nM

Input line: Entry under review: O=C(CNc1nc(-c2ccnc3[nH]ccc23)nc2ccccc12)NCC(F)(F)F [compound 196] . Reported Ki?
Output line: 500 to 5000 nM

Input line: # query: Ki of entry CN(CC(F)(F)F)C(=O)c1cc(-c2c(Cl)cnc3[nH]ccc23)c[nH]1 [compound 360]
Output line: < 500 nM

Input line: Please report the recorded Ki for CN(CCc1ccccn1)C(=O)c1cc(-c2c(Cl)cnc3[nH]ccc23)c[nH]1 [compound 351] .
Output line: < 500 nM

Input line: Data request, read-out Ki, for O=C(CC(F)(F)F)N1CC[C@H](Nc2c(Cl)cnc3[nH]ccc23)C1 [compound 187]
Output line: < 500 nM

Input line: Consider the compound CN(CCC#N)C(=O)c1cc(-c2c(F)cnc3[nH]ccc23)c[nH]1 [compound 386] and give its measured Ki.
Output line: < 500 nM

Input line: What Ki value was documented for this compound, N#CCC(=O)N1CCCC(Nc2c(Cl)cnc3[nH]ccc23)C1 (stereo not drawn) [compound 188] ?
Output line: < 500 nM

Input line: Returns the measured Ki for the input compound. Input: CCCCN(CC#N)C(=O)c1cc(-c2ccnc3[nH]ccc23)c[nH]1 [compound 300]
Output line: < 500 nM

Input line: Fill in: Ki of CCNC(=O)c1ccc(-c2ccnc3[nH]ccc23)cc1 [compound 273] is ___
Output line: 500 to 5000 nM

Input line: Requested read-out: Ki. Entry: Clc1cnc2[nH]ccc2c1N[C@@H]1CCC[C@H]1OCc1ccccc1 [compound 152]
Output line: < 500 nM

Input line: Suppose we examine the compound Clc1cnc2[nH]ccc2c1-c1cc2ccccc2o1 [compound 138] ; what Ki value has been reported?
Output line: < 500 nM

Input line: Which measured Ki value corresponds to O=C(NCC(F)(F)F)c1cccc(-c2ccnc3[nH]ccc23)c1 [compound 251] ?
Output line: < 500 nM

Input line: What Ki value was documented for this compound, Clc1cnc2[nH]ccc2c1NC1CCCCCC1 [compound 149] ?
Output line: < 500 nM

Input line: Any idea what its Ki is? The compound is CCc1ccccc1-c1ccnc2[nH]ccc12 [compound 231]
Output line: 500 to 5000 nM

Input line: For O=S(=O)(c1ccccc1)n1cc(-c2c(Cl)cnc3[nH]ccc23)c2ccccc21 [compound 148] , what is its reported Ki?
Output line: 500 to 5000 nM

Input line: # query: Ki of entry c1cnc2c(-c3ccnc4[nH]ccc34)cccc2c1 [compound 227]
Output line: > 5000 nM

Input line: Sample CCC1CCCCN1C(=O)c1csc(-c2ccnc3[nH]ccc23)n1 (stereo not drawn) [compound 423] — what was its Ki?
Output line: < 500 nM

Input line: Quick one: Ki of C=CCN(C(=O)c1csc(-c2ccnc3[nH]ccc23)n1)C1CCCC1 [compound 410] ?
Output line: < 500 nM

Input line: Report Ki for N#CCCN(Cc1ccccc1)C(=O)c1cc(-c2c(Cl)cnc3[nH]ccc23)c[nH]1 [compound 343] please.
Output line: < 500 nM

----------
# measurement target: JAK3 (Homo sapiens, UniProt P52333)
# protocol: JAK3 inhibition assay (33P incorporation into poly(Glu)4Tyr)
# Type: biochemical
# measurement setup: enzyme inhibition, Table 5
property: Ki

Input line: Reported Ki for JAK3 (Homo sapiens, UniProt P52333), given OCc1cccc(-c2ccnc3[nH]ccc23)c1 [compound 49] ?
Output line: < 0.5 µM

Input line: Lab note: need Ki with JAK3 (Homo sapiens, UniProt P52333) for entry O=C(Cc1ccccc1)Nc1cccc(-c2ccnc3[nH]ccc23)n1 [compound 99] , please look it up.
Output line: > 5 µM

Input line: Item: Cc1n[nH]c(C)c1-c1ccnc2[nH]ccc12 [compound 124] Test system: JAK3 (Homo sapiens, UniProt P52333) Read-out: Ki Value: ?
Output line: 0.5 to 5 µM

Input line: I'm curious: which Ki was measured for N#CCC(=O)N1CC=C(c2ccnc3[nH]ccc23)CC1 [compound 66] tested on JAK3 (Homo sapiens, UniProt P52333)?
Output line: 0.5 to 5 µM

Input line: Provide value of Ki for this record tested with JAK3 (Homo sapiens, UniProt P52333): COc1cccc(CNc2cccc(-c3ccnc4[nH]ccc34)n2)c1 [compound 73]
Output line: 0.5 to 5 µM

Input line: JAK3 (Homo sapiens, UniProt P52333) / Ki / C[C@H](Nc1ccnc(-c2ccnc3[nH]ccc23)n1)C(=O)NCC(F)(F)F [compound 120] : value?
Output line: < 0.5 µM

Input line: Identify the measured Ki of Clc1cnc2[nH]ccc2c1-c1cccc(N2CCCC2)n1 [compound 79] for JAK3 (Homo sapiens, UniProt P52333).
Output line: 0.5 to 5 µM

Input line: Hello, I am looking for reported Ki with JAK3 (Homo sapiens, UniProt P52333) for CC(C)C[C@@H](CO)Nc1cccc(-c2ccnc3[nH]ccc23)n1 [compound 59] . Could you help?
Output line: > 5 µM

Input line: Reported Ki for JAK3 (Homo sapiens, UniProt P52333), given C[C@H](Nc1nc(-c2ccnc3[nH]ccc23)nc2ccccc12)C(=O)NCC(F)(F)F [compound 134] ?
Output line: 0.5 to 5 µM

----------
# measurement target: ROCK I (Homo sapiens)
# Sequence (Q13464 whole entry): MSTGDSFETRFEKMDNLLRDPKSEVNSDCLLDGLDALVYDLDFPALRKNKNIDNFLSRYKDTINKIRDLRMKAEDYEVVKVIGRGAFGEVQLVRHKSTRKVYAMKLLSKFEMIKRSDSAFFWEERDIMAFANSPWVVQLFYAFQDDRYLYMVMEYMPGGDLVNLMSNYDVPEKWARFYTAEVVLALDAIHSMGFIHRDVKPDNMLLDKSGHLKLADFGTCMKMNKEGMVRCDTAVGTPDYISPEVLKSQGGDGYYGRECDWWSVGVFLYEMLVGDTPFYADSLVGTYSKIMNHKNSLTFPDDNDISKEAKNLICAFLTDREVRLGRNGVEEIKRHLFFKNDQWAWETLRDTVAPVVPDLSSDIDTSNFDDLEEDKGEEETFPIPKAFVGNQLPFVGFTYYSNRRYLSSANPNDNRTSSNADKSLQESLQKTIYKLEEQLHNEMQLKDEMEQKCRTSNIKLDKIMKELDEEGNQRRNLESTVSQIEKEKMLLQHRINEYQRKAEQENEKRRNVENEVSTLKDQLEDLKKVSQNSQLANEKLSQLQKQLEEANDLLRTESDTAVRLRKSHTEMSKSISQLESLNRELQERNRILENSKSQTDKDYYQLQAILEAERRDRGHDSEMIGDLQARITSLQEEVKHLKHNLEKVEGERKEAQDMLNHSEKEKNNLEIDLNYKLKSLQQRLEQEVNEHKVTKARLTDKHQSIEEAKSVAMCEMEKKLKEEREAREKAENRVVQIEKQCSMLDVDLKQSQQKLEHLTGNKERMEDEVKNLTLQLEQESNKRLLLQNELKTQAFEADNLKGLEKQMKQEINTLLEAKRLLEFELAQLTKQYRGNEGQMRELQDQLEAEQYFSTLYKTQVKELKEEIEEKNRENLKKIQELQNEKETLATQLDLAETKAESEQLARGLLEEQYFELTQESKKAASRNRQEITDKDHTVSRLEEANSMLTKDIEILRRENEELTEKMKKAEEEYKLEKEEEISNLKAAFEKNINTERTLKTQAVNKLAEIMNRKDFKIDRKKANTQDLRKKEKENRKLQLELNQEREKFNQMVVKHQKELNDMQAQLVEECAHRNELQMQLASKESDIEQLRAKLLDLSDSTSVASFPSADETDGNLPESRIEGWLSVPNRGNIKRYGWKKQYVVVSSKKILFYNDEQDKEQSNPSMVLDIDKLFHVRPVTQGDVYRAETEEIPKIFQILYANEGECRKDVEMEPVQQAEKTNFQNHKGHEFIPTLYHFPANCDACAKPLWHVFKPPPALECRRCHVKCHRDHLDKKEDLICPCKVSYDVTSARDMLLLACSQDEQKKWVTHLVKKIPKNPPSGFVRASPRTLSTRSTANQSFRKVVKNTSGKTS
# protocol: ROCK-I inhibition assay (radioactive enzyme assay, MBP substrate)
# Type: biochemical
# measurement setup: Table 6; enzyme inhibition data (Ki)
property: Ki

Input line: Reported Ki, compound CC(=O)c1ccc(-c2c(Cl)cnc3[nH]ccc23)s1 : ____
Output line: > 4000 nM

Input line: Reported Ki, compound CN(CCC#N)C(=O)c1ccc(-c2ccnc3[nH]ccc23)s1 : ____
Output line: < 500 nM

Input line: Which Ki value belongs to Cc1ccc(F)c(-c2ccnc3[nH]ccc23)c1Cl ?
Output line: 500 to 5000 nM

Input line: Fill blank: measured Ki of the compound N#CCCN(CCC(F)(F)F)C(=O)c1csc(-c2ccnc3[nH]ccc23)n1 is ____.
Output line: < 500 nM

Input line: What value of measured Ki is listed for O=C(Cc1nc(-c2ccnc3[nH]ccc23)ncc1F)NCC(F)(F)F ?
Output line: 500 to 5000 nM

Input line: Look up Ki: Cc1ccc(C)c(-c2ccnc3[nH]ccc23)c1
Output line: < 500 nM

Input line: Which Ki is reported for this compound? O=C(c1cc(-c2c(F)cnc3[nH]ccc23)c[nH]1)N(CCC(F)(F)F)Cc1ccccc1
Output line: 500 to 5000 nM

Input line: // returns reported Ki for input O=C(c1cc(-c2ccnc3[nH]ccc23)c[nH]1)N1CCC(O)C1 (stereo not drawn) [compound 377]
Output line: < 500 nM

Input line: I am curious: what Ki value has been reported for N#CCN(Cc1ccc(F)cc1)C(=O)c1cc(-c2c(F)cnc3[nH]ccc23)c[nH]1 ?
Output line: < 500 nM

Input line: Looking for the measured Ki of CN(CC(F)(F)F)C(=O)c1cc(-c2ccnc3[nH]ccc23)c[nH]1 , can you help?
Output line: < 500 nM

Input line: Name the recorded Ki for CCOC(=O)[C@@H]1[C@@H](C)CCN1C(=O)c1csc(-c2ccnc3[nH]ccc23)n1 .
Output line: 500 to 5000 nM

Input line: Field request: Ki | item: N#Cc1ccccc1-c1ccnc2[nH]ccc12
Output line: 500 to 5000 nM

Input line: If you can, please state the reported Ki value of O=C(c1cc(-c2c(Cl)cnc3[nH]ccc23)c[nH]1)N1CCCC1CO (stereo not drawn) .
Output line: > 4000 nM

Input line: GET /values?readout=Ki&item= CCCS(=O)(=O)N1CC[C@@H](Nc2c(Cl)cnc3[nH]ccc23)C1
Output line: > 4000 nM

Input line: Query (compound): CCCN(CCC#N)C(=O)c1ccc(-c2ccnc3[nH]ccc23)s1 ; field requested: Ki
Output line: < 500 nM

Input line: Sample C#CCOC(=O)N1CCCC(Nc2c(Cl)cnc3[nH]ccc23)C1 (stereo not drawn) — what was its Ki?
Output line: 500 to 5000 nM

Input line: Which Ki value belongs to CCCNC(=O)c1cccc(-c2ccnc3[nH]ccc23)c1 ?
Output line: 500 to 5000 nM

Input line: Using the record for CCNC(=O)c1ccc(-c2ccnc3[nH]ccc23)cc1 , report its Ki.
Output line: 500 to 5000 nM
